# Tested on: Ruminococcus gnavus DSM 108212
# assay procedure: growth (OD595) fold change vs plate DMSO controls (fold change (ratio)); higher = more growth
# assay conditions: incubation time: 27 h, anaerobic, 37 °C
Where a name gives a salt, the structure may show the parent alone.
readout: growth

// worked examples, growth included
compound: CC(C)(C)NC[C@H](O)c1ccc(O)c(CO)c1 [Levalbuterol hydrochloride] (20 µM)
growth: 0.865
--
compound: CNCCC(Oc1ccc(C(F)(F)F)cc1)c1ccccc1 (stereo not given) [Fluoxetine hydrochloride] (20 µM)
growth: 1.2
--
compound: CCCCC1C(=O)N(c2ccccc2)N(c2ccccc2)C1=O [Phenylbutazone] (20 µM)
growth: 1.02

The reported growth of the compound CNCCCC12CCC(c3ccccc31)c1ccccc12 [Maprotiline hydrochloride] (20 µM) was 1.09

The reported growth of the compound CN(C)CCOC1=Cc2ccccc2Sc2ccc(Cl)cc21 [Zotepine] (20 µM) was 1.34

The reported growth of the compound CCn1cc(C(=O)O)c(=O)c2cc(F)c(N3CCN(C)CC3)cc21 [Pefloxacin] (20 µM) was 1.13

###

# Tested on: Klebsiella aerogenes DSM 30053
# assay procedure: fold change of Putrescine concentration vs plate DMSO controls (fold change (ratio)); higher = more amine produced, active = hit call of the paper (significant change in both replicates, either direction)
# assay conditions: incubation time: 27 h, anaerobic, 37 °C
Counter-ions that a name gives are not always drawn.
readout: fold change of Putrescine concentration

// worked examples, fold change of Putrescine concentration included
molecule: Nc1nc2ccc(OC(F)(F)F)cc2s1 [Riluzole hydrochloride] (20 µM)
fold change of Putrescine concentration: 0.988 (inactive)
//
molecule: Nc1ccc(C(=O)O)c(O)c1 [Aminosalicylic acid] (20 µM)
fold change of Putrescine concentration: 1.01 (inactive)

Next molecule, please.
The reported fold change of Putrescine concentration of the molecule CCCNC(C)C(=O)Nc1c(C)csc1C(=O)OC (stereo not drawn) [Articaine hydrochloride] (20 µM) was 0.992 (inactive)

###

# Test system: Klebsiella aerogenes DSM 30053
# assay procedure: fold change of Histamine concentration vs plate DMSO controls (fold change (ratio)); higher = more amine produced, active = hit call of the paper (significant change in both replicates, either direction)
# assay conditions: incubation time: 27 h, anaerobic, 37 °C
Where a name gives a salt, the structure may show the parent alone.
This section presents compounds with their documented fold change of Histamine concentration values.
Number, no unit, nothing else.

The reported fold change of Histamine concentration of the compound CCN[C@H]1CN(CCCOC)S(=O)(=O)c2sc(S(N)(=O)=O)cc21 [Brinzolamide] (20 µM) was 1

The reported fold change of Histamine concentration of the compound COc1ccc(C(=O)c2ccc(C)cc2)c(O)c1 [Mexenone] (20 µM) was 1.02

The reported fold change of Histamine concentration of the compound CC(C(=O)O)c1ccc(C(=O)c2ccccc2)s1 (stereo not given) [Tiaprofenic acid] (20 µM) was 0.995

The reported fold change of Histamine concentration of the compound CS(=O)(=O)c1ccc(C2=C(c3ccccc3)C(=O)OC2)cc1 [Rofecoxib] (20 µM) was 0.981

The reported fold change of Histamine concentration of the compound C/C(=C1\CCOC(=O)S1)N(C=O)Cc1cnc(C)nc1N [Cycotiamine] (20 µM) was 1.01

The reported fold change of Histamine concentration of the compound CCOc1ccccc1C(N)=O [Ethenzamide] (20 µM) was 1.02

The reported fold change of Histamine concentration of the compound CCC(=O)[C@@]1(C)[C@H](C)C[C@H]2[C@@H]3CCC4=CC(=O)C=C[C@]4(C)[C@H]3[C@@H](O)C[C@@]21C [Rimexolone] (20 µM) was 1.02

The reported fold change of Histamine concentration of the compound CC(=O)Oc1ccc(C(=C2CCCCC2)c2ccc(OC(C)=O)cc2)cc1 [Cyclofenil] (20 µM) was 0.983

The reported fold change of Histamine concentration of the compound C=CCc1ccc(OC)c(OC)c1 [Methyleugenol] (20 µM) was 0.992

The reported fold change of Histamine concentration of the compound CN(C)CCOC(=O)C(c1ccccc1)C1(O)CCCC1 (stereo not given) [Cyclopentolate hydrochloride] (20 µM) was 0.982

The reported fold change of Histamine concentration of the compound O=C(CO)[C@@H](O)[C@H](O)[C@H](O)CO [D(-) Fructose] (50 µM) was 0.994

The reported fold change of Histamine concentration of the compound CCCC(CCC)C(=O)O[C@H]1C[C@H]2CC[C@@H](C1)[N+]2(C)C [Anisotropine Methylbromide] (20 µM) was 0.986

The reported fold change of Histamine concentration of the compound C#CCN(C)CCCOc1ccc(Cl)cc1Cl [Clorgyline hydrochloride] (20 µM) was 1.04

The reported fold change of Histamine concentration of the compound OC(CCN1CCCCC1)(c1ccccc1)C1CCCCC1 (stereo not given) [Trihexyphenidyl-D,L hydrochloride] (20 µM) was 0.954

The reported fold change of Histamine concentration of the compound COc1cc([S+](C)[O-])ccc1-c1nc2cccnc2[nH]1 (stereo not given) [Sulmazole] (20 µM) was 0.922
